Test system: biotinyl-Leu-oxazolone
Assay: self-aminoacylation, catalytic enhancement (BLO) (fold over background); higher = more active; k-Seq, kA / k0A0; sequences stand for … in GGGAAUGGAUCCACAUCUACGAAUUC…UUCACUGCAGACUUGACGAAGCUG
Variants at the floor of the assay were thinned out.
measured-metric: self-aminoacylation

AUUCACAAAGGUCAUCGGGUG [Fam2.2 aminoacylation ribozyme variant] : 12.2
CCACACUACAAGCAAUCGGUG [Fam1B.1 aminoacylation ribozyme variant] : 6.9
CCACACUUCAAGCCAUAGGUC [Fam1B.1 aminoacylation ribozyme variant] : 0.632
CUACUUCAGAUAAUCGGUCUG [Fam1A.1 aminoacylation ribozyme variant] : 0.675

====

Tested on: biotinyl-Leu-oxazolone
Test: self-aminoacylation, catalytic enhancement (BLO) (fold over background); higher = more active; k-Seq, kA / k0A0; sequences stand for … in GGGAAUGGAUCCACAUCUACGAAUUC…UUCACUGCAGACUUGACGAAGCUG
Fewer inactive variants are shown than the library holds.
Reported self-aminoacylation by item:
measured-metric: self-aminoacylation

AGGUUUGCUAAUAGUCGCGAG [Fam3.1 aminoacylation ribozyme variant] : 1.61
CUACUUCUAACAAUCGGUCUG [Fam1A.1 aminoacylation ribozyme variant] : 0.585
CUAUUUCAAACCAUCGGUCUG [Fam1A.1 aminoacylation ribozyme variant] : 0.94
AUUCACCUAGGUUAUCGCGUG [Fam2.2 aminoacylation ribozyme variant] : 3.29

====

Reported self-aminoacylation values are given for each entry in this list.
Tested on: biotinyl-Trp-oxazolone
Assay: self-aminoacylation, catalytic enhancement (BWO) (fold over background); higher = more active; k-Seq, kA / k0A0; sequences stand for … in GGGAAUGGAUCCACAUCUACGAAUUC…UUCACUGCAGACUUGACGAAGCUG
Fewer inactive variants are shown than the library holds.
measured-metric: self-aminoacylation

AAUACCCUGGGCAUCGAGUGA [Fam2.1 aminoacylation ribozyme variant] : 3.44
AUUCACCCUGGUCAUCGGGUG [Fam2.2 aminoacylation ribozyme variant] : 10.6
AUUCACCUGGGUCAUCUGGUG [Fam2.2 aminoacylation ribozyme variant] : 2.99
CGACACUUCAAGCAAUCGGGC [Fam1B.1 aminoacylation ribozyme variant] : 2.12
AAGUUUGCCAAUAGUUGCAAG [Fam3.1 aminoacylation ribozyme variant] : 0.808

====

Tested on: biotinyl-Phe-oxazolone
Experiment: self-aminoacylation, catalytic enhancement (BFO) (fold over background); higher = more active; k-Seq, kA / k0A0; sequences stand for … in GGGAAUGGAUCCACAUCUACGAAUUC…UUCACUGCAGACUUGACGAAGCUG
Variants at the floor of the assay were thinned out.
measured-metric: self-aminoacylation

AUUCACCGUGGUCAUCGGGUG [Fam2.2 aminoacylation ribozyme variant] : 59.5
AUUACCCUGGUCACCGAGUUA [Fam2.1 aminoacylation ribozyme variant] : 1.81
CCACACUUUAAGCAUUCGGUC [Fam1B.1 aminoacylation ribozyme variant] : 1.05
AUUCGCCUAGGUCAUCGGGUU [Fam2.2 aminoacylation ribozyme variant] : 75.6
CCACUUCAAACAAUCGGACUG [Fam1A.1 aminoacylation ribozyme variant] : 22.6
CGACACUUCCAGCAAUCGGUC [Fam1B.1 aminoacylation ribozyme variant] : 0.915
AUUACCUUGGUCAGCGAGUGA [Fam2.1 aminoacylation ribozyme variant] : 21.5
CUAGUUCAAACAAACGGUCUG [Fam1A.1 aminoacylation ribozyme variant] : 0.831
CUCCUUCAAACAAUCGGUCUU [Fam1A.1 aminoacylation ribozyme variant] : 25.4
CGACACUUCACGCAAUCGGUC [Fam1B.1 aminoacylation ribozyme variant] : 4.13
CUUACCCUGGUCAUCGUGUGA [Fam2.1 aminoacylation ribozyme variant] : 11.1
CCACACUUGAAGCAAUUGGUC [Fam1B.1 aminoacylation ribozyme variant] : 0.359
AUUCAGCUGGGUCAUCGGGUG [Fam2.2 aminoacylation ribozyme variant] : 37.9
AAGUUUAGUAAUAGUCGCAAG [Fam3.1 aminoacylation ribozyme variant] : 3.24
AUUCACCGAGGUCAUCGUGUG [Fam2.2 aminoacylation ribozyme variant] : 6.45
AUUACCCUGAUCAUCGAGAGA [Fam2.1 aminoacylation ribozyme variant] : 0.905
AUUCACCUCGGUCAUCGGGUG [Fam2.2 aminoacylation ribozyme variant] : 53.6
AUUGACCUAGGACAUCGGGUG [Fam2.2 aminoacylation ribozyme variant] : 19.3

====

Tested on: biotinyl-Trp-oxazolone
Test: self-aminoacylation, catalytic enhancement (BWO) (fold over background); higher = more active; k-Seq, kA / k0A0; sequences stand for … in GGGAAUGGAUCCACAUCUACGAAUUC…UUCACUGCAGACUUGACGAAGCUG
This sample holds only a part of the variants without activity.
# self-aminoacylation per record follows
measured-metric: self-aminoacylation

AUUACCCUGGUUAUCGUGUGA [Fam2.1 aminoacylation ribozyme variant] : 2.76
AUUAGCCUGGUCAUCAAGUGA [Fam2.1 aminoacylation ribozyme variant] : 4.94
CUACUCCAAACCAUCGGUCUG [Fam1A.1 aminoacylation ribozyme variant] : 1.01
AUUGCCCUGGUCAUCGAGAGA [Fam2.1 aminoacylation ribozyme variant] : 0.807
AUAACCUUGGUCAUCGAGUGA [Fam2.1 aminoacylation ribozyme variant] : 7.25
AUUGCCCUGGUCAUCGAGUAA [Fam2.1 aminoacylation ribozyme variant] : 8.07
AUUAUCCUGGUCAUCGAGUGA [Fam2.1 aminoacylation ribozyme variant] : 14.5
ACUGACCUAGGUCAUCGGGUG [Fam2.2 aminoacylation ribozyme variant] : 7.32
AUCCACCUAGGUGAUCGGGUG [Fam2.2 aminoacylation ribozyme variant] : 5.98

====

System: biotinyl-Val-oxazolone
Experiment: self-aminoacylation, catalytic enhancement (BVO) (fold over background); higher = more active; k-Seq, kA / k0A0; sequences stand for … in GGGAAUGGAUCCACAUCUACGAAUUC…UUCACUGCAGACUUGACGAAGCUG
Fewer inactive variants are shown than the library holds.
We use 1 as the dividing line for self-aminoacylation: on or above the line is Y, below is N.

AUUGACCUAUGUCAUCGGGUG [Fam2.2 aminoacylation ribozyme variant] : Y
CCACACUUCAAGCAAUCCGAC [Fam1B.1 aminoacylation ribozyme variant] : N
AUUACCCUGGUCAACGAGUAA [Fam2.1 aminoacylation ribozyme variant] : Y
AUAAACCUAGGUCAUCGGGUG [Fam2.2 aminoacylation ribozyme variant] : Y
CUACUCCAUACAAUCGGUCUG [Fam1A.1 aminoacylation ribozyme variant] : N
CCACACUUCAAGCAAUUGGAC [Fam1B.1 aminoacylation ribozyme variant] : N
AGUCACCUAGGACAUCGGGUG [Fam2.2 aminoacylation ribozyme variant] : Y

====

System: biotinyl-Trp-oxazolone
Experiment: self-aminoacylation, catalytic enhancement (BWO) (fold over background); higher = more active; k-Seq, kA / k0A0; sequences stand for … in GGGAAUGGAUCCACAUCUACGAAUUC…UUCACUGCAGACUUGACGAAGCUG
Variants at the floor of the assay were thinned out.
Dear colleague, classification is by self-aminoacylation, with ranges listed here: bottom bin: < 3; middle bin: ≥ 3 and < 7; top bin: ≥ 7

UUGCACCUAGGUCAUCGGGUG [Fam2.2 aminoacylation ribozyme variant] : middle bin
AUUACCCUGGGUAUCGAGUGA [Fam2.1 aminoacylation ribozyme variant] : top bin
CCACACUUCAAUCAAUCGGUG [Fam1B.1 aminoacylation ribozyme variant] : bottom bin
CAUCACCUAGGUCAUCGGGUG [Fam2.2 aminoacylation ribozyme variant] : middle bin
UCACACUUCAAGCAAUCCGUC [Fam1B.1 aminoacylation ribozyme variant] : bottom bin
CCACACUUCAAGUUAUCGGUC [Fam1B.1 aminoacylation ribozyme variant] : bottom bin
GUUCACCUAGGUCAUCGGGUG [Fam2.2 aminoacylation ribozyme variant] : top bin

====

Recorded self-aminoacylation for the following sequences
System: biotinyl-Leu-oxazolone
Experiment: self-aminoacylation, catalytic enhancement (BLO) (fold over background); higher = more active; k-Seq, kA / k0A0; sequences stand for … in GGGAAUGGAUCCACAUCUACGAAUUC…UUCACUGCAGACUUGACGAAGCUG
Fewer inactive variants are shown than the library holds.
measured-metric: self-aminoacylation

CUACGUCAAACAAUCGGUCAG [Fam1A.1 aminoacylation ribozyme variant] : 1.12
AAGCUUGCUAAUAGUCGCAUG [Fam3.1 aminoacylation ribozyme variant] : 2.07
AUUCACCUAGGACAUCGAGUG [Fam2.2 aminoacylation ribozyme variant] : 1.81
AAGUUUGCUAUUAGGCGCAAG [Fam3.1 aminoacylation ribozyme variant] : 0.546
AAUCAUCUAGGUCAUCGGGUG [Fam2.2 aminoacylation ribozyme variant] : 5.48
AUUCACCUAGUUCAUCGAGUG [Fam2.2 aminoacylation ribozyme variant] : 1.31
AUUACCCUGGUCAUCGCGUGG [Fam2.1 aminoacylation ribozyme variant] : 6.77
CUACCUCUAACAAUCGGUCUG [Fam1A.1 aminoacylation ribozyme variant] : 0.919
CCAUACUUCAAGCAAUCGGUA [Fam1B.1 aminoacylation ribozyme variant] : 1.1
AUUCACCUCGGUCAUCGGGUG [Fam2.2 aminoacylation ribozyme variant] : 9.64
CCACACUUAAAGCCAUCGGUC [Fam1B.1 aminoacylation ribozyme variant] : 0.913
UUACACCUAGGUCAUCGGGUG [Fam2.2 aminoacylation ribozyme variant] : 1.87
CGACACUUCAAGCAAUCGGUA [Fam1B.1 aminoacylation ribozyme variant] : 1.41
CUUCAACUAGGUCAUCGGGUG [Fam2.2 aminoacylation ribozyme variant] : 6.16
AUUACCCUGGUCAUCGGGUCA [Fam2.1 aminoacylation ribozyme variant] : 6.66
CCACUCUUCAAGCAAUAGGUC [Fam1B.1 aminoacylation ribozyme variant] : 0.669
AAGGUUUCUAAUAGUCGCAAG [Fam3.1 aminoacylation ribozyme variant] : 1.05
UCACACUUCAAGCAGUCGGUC [Fam1B.1 aminoacylation ribozyme variant] : 0.879

Data provenance is the supplement of paper PMC9233669.
